All figures here come from ChEMBL document CHEMBL2074124.

Molecular target: Solute carrier family 22 member 2 (Rattus norvegicus)
Sequence (Q9R0W2 whole entry): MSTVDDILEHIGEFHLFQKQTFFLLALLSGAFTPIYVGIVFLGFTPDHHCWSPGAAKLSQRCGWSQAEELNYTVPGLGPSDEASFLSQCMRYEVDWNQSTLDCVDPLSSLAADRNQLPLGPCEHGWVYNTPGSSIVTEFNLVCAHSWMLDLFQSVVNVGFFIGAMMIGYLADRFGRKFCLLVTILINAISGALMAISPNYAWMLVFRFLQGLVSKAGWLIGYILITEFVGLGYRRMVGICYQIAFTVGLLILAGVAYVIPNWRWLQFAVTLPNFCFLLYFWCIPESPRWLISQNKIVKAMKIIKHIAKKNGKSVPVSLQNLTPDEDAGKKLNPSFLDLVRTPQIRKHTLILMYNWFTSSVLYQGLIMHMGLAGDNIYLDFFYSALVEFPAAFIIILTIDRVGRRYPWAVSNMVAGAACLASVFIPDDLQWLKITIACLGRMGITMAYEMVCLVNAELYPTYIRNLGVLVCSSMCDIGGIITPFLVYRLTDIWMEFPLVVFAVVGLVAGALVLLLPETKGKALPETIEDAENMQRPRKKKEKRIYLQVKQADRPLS
Test: TP_TRANSPORTER: inhibition of TEA uptake (apical to cell) in OCT2-expressing NIH3T3 cells
Measurement Name: Ki (µM)
Give just the number in µM; leave the unit off.

Param item: CC[n+]1c(CC2C=C(C)N=C(c3ccccc3)N2C)ccc2ccccc21 (configuration not stated) ; param system: Solute carrier family 22 member 2 (Rattus norvegicus); output Ki: 0.861

Param item: `CN/C(=N/CCSCc1nc[nH]c1C)NC#N` ; param system: Solute carrier family 22 member 2 (Rattus norvegicus); output Ki: 198
